# Measurement Protocol: Cytotoxicity against human FS4-LTM cells after 24 hrs by WST-1 assay
# Format: cell-based
Observation Type: IC50

INSERT INTO assay_data (structure_smiles_string, test_value) VALUES
  ('NCCC(=O)c1cccc2c1N[C@H](CNC(=O)c1cc(Br)c(Br)[nH]1)[C@@H](c1cnc(N)[nH]1)O2', 'Not Active'),
  ('Nc1ncc(/C=C/CNC(=O)c2cc(Br)c(Br)[nH]2)[nH]1', 'Not Active'),
  ('Nc1ncc([C@@H]2[C@@H](CNC(=O)c3ccc[nH]3)[C@H](CNC(=O)c3cc(Br)c[nH]3)[C@H]2c2cnc(N)[nH]2)[nH]1', 'Not Active'),
  ('C[n+]1cnc2[nH]c(=O)n(-c3nc(N)[nH]c3[C@@H]3[C@@H](CNC(=O)c4cc(Br)c[nH]4)[C@H](CNC(=O)c4cc(Br)c[nH]4)[C@H]3c3cnc(N)[nH]3)c2c1N', 'Not Active'),
  ('Nc1ncc([C@@H]2[C@@H](CNC(=O)c3cc(Br)c[nH]3)[C@H](CNC(=O)c3cc(Br)c[nH]3)[C@H]2c2cnc(N)[nH]2)[nH]1', 'Not Active');

* * *

# Tested on: Candida albicans
# Measurement Protocol: Antimicrobial activity against Candida albicans after 24 hrs by microdilution method
# Assay type: functional, organism-based
Active and inactive are the calls of the source. No cut-off for these calls is given here.
Observation Type: MIC

INSERT INTO measurements (structure_smiles_string, observation_type, test_value) VALUES
  ('Nc1ncc([C@@H]2[C@@H](CNC(=O)c3cc(Br)c[nH]3)[C@H](CNC(=O)c3cc(Br)c[nH]3)[C@H]2c2cnc(N)[nH]2)[nH]1', 'MIC', 'inactive'),
  ('C[n+]1cnc2[nH]c(=O)n(-c3nc(N)[nH]c3[C@@H]3[C@@H](CNC(=O)c4cc(Br)c[nH]4)[C@H](CNC(=O)c4cc(Br)c[nH]4)[C@H]3c3cnc(N)[nH]3)c2c1N', 'MIC', 'inactive'),
  ('NCCC(=O)c1cccc2c1N[C@H](CNC(=O)c1cc(Br)c(Br)[nH]1)[C@@H](c1cnc(N)[nH]1)O2', 'MIC', 'inactive'),
  ('Nc1ncc(/C=C/CNC(=O)c2cc(Br)c(Br)[nH]2)[nH]1', 'MIC', 'inactive'),
  ('Nc1ncc([C@@H]2[C@@H](CNC(=O)c3ccc[nH]3)[C@H](CNC(=O)c3cc(Br)c[nH]3)[C@H]2c2cnc(N)[nH]2)[nH]1', 'MIC', 'inactive');

* * *

# Measurement Protocol: Cytotoxicity against human FS4-LTM cells after 24 hrs by WST-1 assay
# Format: cell-based
# Experimental Conditions: human, 24 h
Observation Type: IC90

INSERT INTO assay_data (molecule, test_value) VALUES
  ('Nc1ncc([C@@H]2[C@@H](CNC(=O)c3cc(Br)c[nH]3)[C@H](CNC(=O)c3cc(Br)c[nH]3)[C@H]2c2cnc(N)[nH]2)[nH]1', 'Not Active'),
  ('NCCC(=O)c1cccc2c1N[C@H](CNC(=O)c1cc(Br)c(Br)[nH]1)[C@@H](c1cnc(N)[nH]1)O2', 'Not Active'),
  ('Nc1ncc([C@@H]2[C@@H](CNC(=O)c3ccc[nH]3)[C@H](CNC(=O)c3cc(Br)c[nH]3)[C@H]2c2cnc(N)[nH]2)[nH]1', 'Not Active'),
  ('Nc1ncc(/C=C/CNC(=O)c2cc(Br)c(Br)[nH]2)[nH]1 [OROIDIN]', 'Not Active'),
  ('C[n+]1cnc2[nH]c(=O)n(-c3nc(N)[nH]c3[C@@H]3[C@@H](CNC(=O)c4cc(Br)c[nH]4)[C@H](CNC(=O)c4cc(Br)c[nH]4)[C@H]3c3cnc(N)[nH]3)c2c1N', 'Not Active');

* * *

# Measurement Protocol: Cytotoxicity against human KB3-1 cells after 5 days by WST-1 assay
# Type: functional, cell-based, KB 3-1
# Experimental Conditions: Homo sapiens, KB 3-1, 120 h; read-out: IC50
Observation Type: IC50 (µM)

INSERT INTO assay_data (structure_smiles_string, test_value) VALUES
  ('NCCC(=O)c1cccc2c1N[C@H](CNC(=O)c1cc(Br)c(Br)[nH]1)[C@@H](c1cnc(N)[nH]1)O2', 44),
  ('Nc1ncc([C@@H]2[C@@H](CNC(=O)c3ccc[nH]3)[C@H](CNC(=O)c3cc(Br)c[nH]3)[C@H]2c2cnc(N)[nH]2)[nH]1', 29),
  ('Nc1ncc([C@@H]2[C@@H](CNC(=O)c3cc(Br)c[nH]3)[C@H](CNC(=O)c3cc(Br)c[nH]3)[C@H]2c2cnc(N)[nH]2)[nH]1', 80);
